Assay Summary: Inhibition of Mycobacterium tuberculosis AHAS catalytic subunit assessed as inhibition of acetoin formation using […] as substrate after 1 hr
Below, each entry is listed with its recorded IC50.

Example entries and their recorded answers appear below.
structure_as_smiles=O=C(On1c(-c2ccccc2)nc2ccccc2c1=O)c1cccc(F)c1 result="> 100 µM"
structure_as_smiles=COc1cccc(-c2nc3ccccc3c(=O)n2OC(=O)c2cccc([N+](=O)[O-])c2)c1 result="8.74 µM"
structure_as_smiles=O=C(On1c(-c2cccc(F)c2)nc2ccccc2c1=O)c1cccc(F)c1 result="6.5 µM"
structure_as_smiles=COc1cccc(C(=O)On2c(-c3cccc(F)c3)nc3ccccc3c2=O)c1 result="> 100 µM"
structure_as_smiles=O=C(On1c(-c2cccc(F)c2)nc2ccccc2c1=O)c1cccc(Cl)c1 result="> 100 µM"
structure_as_smiles=Cc1ccccc1-c1nc2ccccc2c(=O)n1OC(=O)c1cccc(F)c1 result="> 100 µM"

Query: State the recorded IC50 for this entry: O=C(On1c(-c2cccc(F)c2)nc2ccccc2c1=O)c1ccccc1
Reply: > 100 µM

Query: State the recorded IC50 for this entry: COc1cccc(-c2nc3ccccc3c(=O)n2OC(=O)c2cccc(Cl)c2)c1
Reply: > 100 µM

Query: State the recorded IC50 for this entry: Cc1cccc(C(=O)On2c(-c3ccccc3)nc3ccccc3c2=O)c1
Reply: > 100 µM

Query: State the recorded IC50 for this entry: O=C(On1c(-c2ccccc2)nc2ccccc2c1=O)c1cccc(Cl)c1
Reply: 12.1 µM

Query: State the recorded IC50 for this entry: O=C(On1c(-c2ccccc2)nc2ccccc2c1=O)c1ccc(Cl)cc1
Reply: > 100 µM

Query: State the recorded IC50 for this entry: Cc1ccc(C(=O)On2c(-c3ccccc3)nc3ccccc3c2=O)cc1
Reply: > 100 µM

Query: State the recorded IC50 for this entry: O=C(On1c(-c2ccccc2)nc2ccccc2c1=O)c1cccc([N+](=O)[O-])c1
Reply: 9.68 µM

Query: State the recorded IC50 for this entry: Cc1cccc(-c2nc3ccccc3c(=O)n2OC(=O)c2ccc(Cl)cc2)c1
Reply: > 100 µM

Query: State the recorded IC50 for this entry: Cc1ccccc1C(=O)On1c(-c2ccccc2)nc2ccccc2c1=O
Reply: > 100 µM

Query: State the recorded IC50 for this entry: COC(=O)c1ccccc1S(=O)(=O)NC(=O)Nc1nc(C)cc(C)n1
Reply: 4.79 µM

Query: State the recorded IC50 for this entry: O=C(On1c(-c2cccc(F)c2)nc2ccccc2c1=O)c1cccc(C(F)(F)F)c1
Reply: > 100 µM

Query: State the recorded IC50 for this entry: Cc1cccc(-c2nc3ccccc3c(=O)n2OC(=O)c2cccc(C(F)(F)F)c2)c1
Reply: > 100 µM

Query: State the recorded IC50 for this entry: Cc1cccc(-c2nc3ccccc3c(=O)n2OC(=O)c2cccc(F)c2)c1
Reply: > 100 µM

Query: State the recorded IC50 for this entry: COc1cccc(-c2nc3ccccc3c(=O)n2OC(=O)c2cccc(C(F)(F)F)c2)c1
Reply: 9.57 µM

Query: State the recorded IC50 for this entry: Cc1cccc(-c2nc3ccccc3c(=O)n2OC(=O)c2ccccc2)c1
Reply: > 100 µM

----------
System: Mycobacterium tuberculosis
Assay Summary: Antitubercular activity against Mycobacterium tuberculosis H37Rv ATCC 27294 assessed as inhibition of bacterial growth after 4 weeks by two-fold dilution technique
Type: functional
Conditions Used: H37Rv ATCC 27294, 672 h
Below, each entry is listed with its recorded MIC.
Kindly answer with a numeric value in µg/mL, unit omitted.

structure_as_smiles=O=C(On1c(-c2ccccc2)nc2ccccc2c1=O)c1cccc(Cl)c1 measured_number=5

Query: State the recorded MIC for this entry: COc1cccc(-c2nc3ccccc3c(=O)n2OC(=O)c2cccc(C(F)(F)F)c2)c1
Reply: 10

----------
Test system: Mycobacterium tuberculosis
Assay Summary: Inhibition of Mycobacterium tuberculosis AHAS catalytic subunit assessed as inhibition of acetoin formation using […] as substrate at 100 uM after 1 hr
Below, each entry is listed with its recorded inhibition.
Kindly answer with a numeric value in %, unit omitted.

Query: State the recorded inhibition for this entry: Cc1cccc(C(=O)On2c(-c3cccc(C)c3)nc3ccccc3c2=O)c1
Reply: 10.5

Query: State the recorded inhibition for this entry: COc1cccc(-c2nc3ccccc3c(=O)n2OC(=O)c2cccc(C(F)(F)F)c2)c1
Reply: 73.2

Query: State the recorded inhibition for this entry: COc1cccc(C(=O)On2c(-c3cccc(F)c3)nc3ccccc3c2=O)c1
Reply: 28

----------
System: Mycobacterium tuberculosis
Assay Summary: Inhibition of Mycobacterium tuberculosis AHAS catalytic subunit assessed as inhibition of acetoin formation using […] as substrate at 100 uM after 1 hr
Reported Metric: inhibition (%)
Kindly answer with a numeric value in %, unit omitted.

Example entries and their recorded answers appear below.
structure_as_smiles=O=C(On1c(-c2cccc(F)c2)nc2ccccc2c1=O)c1cccc(C(F)(F)F)c1 measurement_unit=% measured_number=30
structure_as_smiles=O=C(On1c(-c2ccccc2)nc2ccccc2c1=O)c1cccc(F)c1 measurement_unit=% measured_number=26
structure_as_smiles=O=C(On1c(-c2ccccc2)nc2ccccc2c1=O)c1cccc(Cl)c1 measurement_unit=% measured_number=80.5

Now let's try a different one.
Query: State the recorded inhibition for this entry: Cc1cccc(C(=O)On2c(-c3ccccc3)nc3ccccc3c2=O)c1
Reply: 4

----------
Below, each entry is listed with its recorded MIC.
System: Mycobacterium tuberculosis
Assay Summary: Antitubercular activity against Mycobacterium tuberculosis H37Rv ATCC 27294 assessed as inhibition of bacterial growth after 4 weeks by two-fold dilution technique
Type: functional
Conditions Used: H37Rv ATCC 27294, 672 h

Example entries and their recorded answers appear below.
structure_as_smiles=O=C(On1c(-c2ccccc2)nc2ccccc2c1=O)c1cccc([N+](=O)[O-])c1 result="5 µg/mL"
structure_as_smiles=COc1cccc(C(=O)On2c(-c3cccc(F)c3)nc3ccccc3c2=O)c1 result="50 µg/mL"
structure_as_smiles=Cc1cccc(-c2nc3ccccc3c(=O)n2OC(=O)c2ccc(Cl)cc2)c1 result="> 50 µg/mL"

Query: State the recorded MIC for this entry: Cc1ccc(C(=O)On2c(-c3ccccc3)nc3ccccc3c2=O)cc1
Reply: > 50 µg/mL

Query: State the recorded MIC for this entry: COc1cccc(C(=O)On2c(-c3ccccc3)nc3ccccc3c2=O)c1
Reply: > 50 µg/mL

Query: State the recorded MIC for this entry: O=C(On1c(-c2cccc(F)c2)nc2ccccc2c1=O)c1cccc(C(F)(F)F)c1
Reply: > 50 µg/mL

Query: State the recorded MIC for this entry: Cc1cccc(C(=O)On2c(-c3cccc(C)c3)nc3ccccc3c2=O)c1
Reply: > 50 µg/mL

Query: State the recorded MIC for this entry: Cc1cccc(-c2nc3ccccc3c(=O)n2OC(=O)c2cccc(C(F)(F)F)c2)c1
Reply: > 50 µg/mL

Query: State the recorded MIC for this entry: Cc1ccc(C(=O)On2c(-c3cccc(C)c3)nc3ccccc3c2=O)cc1
Reply: > 50 µg/mL

Query: State the recorded MIC for this entry: Cc1ccccc1-c1nc2ccccc2c(=O)n1OC(=O)c1cccc(F)c1
Reply: > 50 µg/mL

----------
Tested on: Mycobacterium tuberculosis
Assay Summary: Antitubercular activity against Mycobacterium tuberculosis H37Rv ATCC 27294 assessed as inhibition of bacterial growth after 4 weeks by two-fold dilution technique
Format: functional
Conditions Used: H37Rv ATCC 27294, 672 h
Below, each entry is listed with its recorded MIC.

structure_as_smiles=Cc1ccccc1C(=O)On1c(-c2ccccc2)nc2ccccc2c1=O reported_metric=MIC result="> 50 µg/mL"
structure_as_smiles=COc1cccc(-c2nc3ccccc3c(=O)n2OC(=O)c2cccc(Cl)c2)c1 reported_metric=MIC result="> 50 µg/mL"
structure_as_smiles=O=C(On1c(-c2cccc(F)c2)nc2ccccc2c1=O)c1cccc(Cl)c1 reported_metric=MIC result="> 50 µg/mL"
structure_as_smiles=COc1cccc(-c2nc3ccccc3c(=O)n2OC(=O)c2cccc([N+](=O)[O-])c2)c1 reported_metric=MIC result="5 µg/mL"
structure_as_smiles=O=C(On1c(-c2cccc(F)c2)nc2ccccc2c1=O)c1ccccc1 reported_metric=MIC result="50 µg/mL"
structure_as_smiles=COC(=O)c1ccccc1S(=O)(=O)NC(=O)Nc1nc(C)cc(C)n1 reported_metric=MIC result="10 µg/mL"
structure_as_smiles=O=C(On1c(-c2ccccc2)nc2ccccc2c1=O)c1cccc(F)c1 reported_metric=MIC result="> 50 µg/mL"
structure_as_smiles=O=C(On1c(-c2cccc(F)c2)nc2ccccc2c1=O)c1cccc(F)c1 reported_metric=MIC result="2.5 µg/mL"

Query: Record Cc1cccc(-c2nc3ccccc3c(=O)n2OC(=O)c2ccccc2)c1 : what is its MIC with Mycobacterium tuberculosis?
Reply: > 50 µg/mL

Query: Record Cc1cccc(-c2nc3ccccc3c(=O)n2OC(=O)c2cccc(F)c2)c1 : what is its MIC with Mycobacterium tuberculosis?
Reply: > 50 µg/mL
